MEASUREMENT_TARGET: Tyrosine-protein phosphatase non-receptor type 11 (Homo sapiens, UniProt Q06124)
Sequence (Q06124 whole entry): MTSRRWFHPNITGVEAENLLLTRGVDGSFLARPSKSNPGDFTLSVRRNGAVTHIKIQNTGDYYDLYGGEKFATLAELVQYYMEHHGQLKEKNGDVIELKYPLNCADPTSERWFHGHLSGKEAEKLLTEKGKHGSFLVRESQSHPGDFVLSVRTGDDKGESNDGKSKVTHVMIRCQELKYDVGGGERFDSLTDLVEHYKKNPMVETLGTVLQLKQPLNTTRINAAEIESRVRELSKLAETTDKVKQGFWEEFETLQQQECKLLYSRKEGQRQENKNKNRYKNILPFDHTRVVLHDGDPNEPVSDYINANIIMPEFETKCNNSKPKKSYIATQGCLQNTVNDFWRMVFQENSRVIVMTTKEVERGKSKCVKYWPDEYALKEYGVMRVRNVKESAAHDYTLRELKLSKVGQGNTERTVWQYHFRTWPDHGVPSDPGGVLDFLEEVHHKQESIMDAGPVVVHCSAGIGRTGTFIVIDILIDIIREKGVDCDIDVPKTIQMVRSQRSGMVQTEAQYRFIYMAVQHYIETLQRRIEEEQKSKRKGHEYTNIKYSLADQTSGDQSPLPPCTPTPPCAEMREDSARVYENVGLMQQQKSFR
TEST: Allosteric inhibition of recombinant human SHP2 using IRS1 peptide and DiFMUP as substrate incubated for 30 mins followed by DiFMUP addition and measured after 30 mins by fluorescence based microplate reader analysis
PROPERTY_NAME: IC50

Cc1csc([C@@]2(CN)[C@@H]3CCN(c4cnc5c(-c6ccc7nn(C)cc7c6Cl)n[nH]c5n4)C[C@@H]32)n1
6 nM
NC[C@]1(c2ccccc2)[C@@H]2CN(c3nc4nc(Sc5cccnc5C(F)(F)F)cnc4[nH]3)C[C@@H]21
> 8000 nM
N[C@]1(c2ccccc2)[C@@H]2CCN(c3nc4nc(Sc5cccnc5C(F)(F)F)cnc4[nH]3)C[C@@H]21
1410 nM
Cc1csc([C@@]2(CN)[C@@H]3CN(c4cnc5c(-c6ccn7nccc7c6Cl)n[nH]c5n4)C[C@@H]32)n1
4 nM
Cc1csc([C@@]2(CN)[C@@H]3CN(c4cnc5c(-c6ccc7nn(C)cc7c6Cl)n[nH]c5n4)C[C@@H]32)n1
5 nM

For every item below, please supply its IC50.
1. Cc1nc([C@@]2(CN)[C@@H]3CN(c4cnc5c(-c6ccc7nn(C)cc7c6Cl)n[nH]c5n4)C[C@@H]32)cs1
2. Cc1csc([C@@]2(CN)[C@@H]3CN(c4cnc5c(-c6ccc7nc(C)sc7c6Cl)n[nH]c5n4)C[C@@H]32)n1

Key:
1: 6 nM; 2: 5 nM

----------
TEST: Apparent permeability of compound at pH 7.4 at 5 uM incubated for 4 hrs by PAMPA based LC-MS/MS analysis
Format: ADME
Please go through the items and note down their Papp at 4 h, 5 µM.
Numbers only, in ×10⁻⁶ cm/s.

Cc1csc([C@]2(CN)[C@@H]3CCN(c4cnc5c(-c6cccc(Cl)c6Cl)n[nH]c5n4)C[C@@H]32)n1
1.75

Next item in the queue.
Exercise: Quote Papp at 4 h, 5 µM reported for "Cc1csc([C@@]2(CN)[C@@H]3CCN(c4cnc5c(-c6ccc7nc(C)sc7c6Cl)n[nH]c5n4)C[C@@H]32)n1" please.
Key: 4.36

----------
TEST: Half life in Sprague-Dawley rat plasma at 0.5 mg/kg, iv and measured upto 24 hrs by LC-MS/MS analysis
Format: ADME, organism-based
PROPERTY_NAME: half-life
The reply should consist of the numeric value with the unit placed after it.

Exercise: Quick one: give measured half-life for "Cc1csc([C@@]2(CN)[C@@H]3CN(c4cnc5c(-c6ccc7nn(C)cc7c6Cl)n[nH]c5n4)C[C@@H]32)n1"
Key: 1.9 h

----------
TEST: Inhibition of ERK phosphorylation in human KYSE520 cells incubated for 2 hrs by TR-FRET assay
Assay type: cell-based
EXPERIMENTAL_SETUP: KYSE-520, 2 h
Quick rule for you: IC50 under 70 nM gets fulfilled, anything else gets not fulfilled.

Worked examples, 2 molecules total:
NC[C@]1(c2ccccc2)[C@@H]2CCN(c3nc4nc(Sc5cccnc5C(F)(F)F)cnc4[nH]3)C[C@@H]21
not fulfilled
NC[C@]1(c2ccccn2)[C@@H]2CCN(c3cnc(Sc4cccnc4C(F)(F)F)c(N)n3)C[C@@H]21
fulfilled

Exercise: Hi there! Is IC50 for "Cc1ccn([C@@]2(CN)[C@@H]3CN(c4cnc5c(-c6ccc7nn(C)cc7c6Cl)n[nH]c5n4)C[C@@H]32)n1" below 70 nM, do you know?
Key: not fulfilled

Exercise: Dear colleague, could you confirm whether IC50 of "NC[C@]1(c2ccccc2)[C@@H]2CCN(c3cnc4c(-c5cccc(Cl)c5Cl)n[nH]c4n3)C[C@@H]21" falls below 70 nM? Thanks.
Key: not fulfilled

Exercise: Decide: IC50 of "Cn1cc2c(Cl)c(-c3n[nH]c4nc(N5C[C@@H]6[C@H](C5)[C@@]6(CN)c5nccs5)cnc34)ccc2n1" strictly below 70 nM?
Key: fulfilled

Exercise: # strict comparison: is reported IC50 < 70 nM? input = "Cn1cc2c(Cl)c(-c3n[nH]c4nc(N5C[C@@H]6[C@H](C5)[C@@]6(CN)c5ccccn5)cnc34)ccc2n1"
Key: fulfilled

Exercise: Say whether its IC50 is strictly beneath 70 nM. Entry: "Cn1cc2c(Cl)c(-c3n[nH]c4nc(N5C[C@@H]6[C@H](C5)[C@@]6(CN)c5nc(C(F)(F)F)cs5)cnc34)ccc2n1"
Key: fulfilled

Exercise: Please determine if "Cc1csc([C@@]2(CN)[C@@H]3CCN(c4cnc5c(-c6ccc7nn(C)cc7c6Cl)n[nH]c5n4)C[C@@H]32)n1" is below 70 nM in terms of IC50.
Key: fulfilled

Exercise: Dear colleague, could you confirm whether IC50 of "NC[C@]1(c2ccsc2)[C@@H]2CCN(c3nc4nc(Sc5cccnc5C(F)(F)F)cnc4[nH]3)C[C@@H]21" falls below 70 nM? Thanks.
Key: not fulfilled

Exercise: Regarding "NC[C@]1(c2ccsc2)[C@@H]2CCN(c3cnc4c(-c5cccnc5C(F)(F)F)n[nH]c4n3)C[C@@H]21" , kindly confirm whether its IC50 is beneath 70 nM.
Key: not fulfilled

Exercise: Dear reviewer, please state whether "Cc1nnc([C@@]2(CN)[C@@H]3CN(c4cnc5c(-c6ccc7nn(C)cc7c6Cl)n[nH]c5n4)C[C@@H]32)s1" has IC50 strictly beneath 70 nM.
Key: not fulfilled

Exercise: I wonder whether "Cn1cc2c(Cl)c(-c3n[nH]c4nc(N5C[C@@H]6[C@H](C5)[C@@]6(CN)c5nc(Cl)cs5)cnc34)ccc2n1" has IC50 below 70 nM. Can you tell?
Key: fulfilled

Exercise: IC50 strictly < 70 nM for this molecule? "Cc1csc([C@@]2(CN)[C@@H]3CCN(c4cnc5c(-c6cccnc6C(F)(F)F)n[nH]c5n4)C[C@@H]32)n1"
Key: not fulfilled

Exercise: IC50 strictly < 70 nM for this molecule? "NC[C@]1(c2ccccn2)[C@@H]2CCN(c3nc4nc(Sc5cccnc5C(F)(F)F)cnc4[nH]3)C[C@@H]21"
Key: not fulfilled

----------
TEST: Metabolic stability in human liver microsomes assessed as intrinsic clearance at 1 uM and measured upto 60 mins in presence of NADPH as cofactor by LC-MS/MS analysis
Type: ADME, Microsome
EXPERIMENTAL_SETUP: read-out: CLH
PROPERTY_NAME: microsomal CLint at 1 µM (µL/min/mg)
Give bare numbers, in µL/min/mg.

Exercise: For the molecule "Cc1csc([C@@]2(CN)[C@@H]3CN(c4cnc5c(-c6ccc7nn(C)cc7c6Cl)n[nH]c5n4)C[C@@H]32)n1" , give its reported microsomal CLint at 1 µM.
Key: 13.5

----------
For each of the compounds below, state its IC50.
MEASUREMENT_TARGET: Tyrosine-protein phosphatase non-receptor type 11 (Homo sapiens, UniProt Q06124)
TEST: Allosteric inhibition of recombinant human SHP2 using IRS1 peptide and DiFMUP as substrate incubated for 30 mins followed by DiFMUP addition and measured after 30 mins by fluorescence based microplate reader analysis
Answers are plain numbers, in µM.

// known answers, use as guide
Cn1cc2c(Cl)c(-c3n[nH]c4nc(N5C[C@@H]6[C@H](C5)[C@@]6(CN)c5cnsn5)cnc34)ccc2n1
0.004
N[C@]1(c2ccccc2)[C@@H]2CCN(c3cnc4c(-c5cccc(Cl)c5Cl)n[nH]c4n3)C[C@@H]21
1.46
NC[C@]1(c2ccsc2)[C@@H]2CCN(c3cnc4c(-c5cccnc5C(F)(F)F)n[nH]c4n3)C[C@@H]21
0.034

Let us move to another entry and its IC50.
Exercise: Check Tyrosine-protein phosphatase non-receptor type 11 (Homo sapiens, UniProt Q06124) data and give IC50 for "Cn1cc2c(Cl)c(-c3n[nH]c4nc(N5C[C@@H]6[C@H](C5)[C@@]6(CN)c5ccccn5)cnc34)ccc2n1" .
Key: 0.005
